Target: AKR1C1 (Homo sapiens, UniProt Q04828)
Sequence (Q04828 1-323): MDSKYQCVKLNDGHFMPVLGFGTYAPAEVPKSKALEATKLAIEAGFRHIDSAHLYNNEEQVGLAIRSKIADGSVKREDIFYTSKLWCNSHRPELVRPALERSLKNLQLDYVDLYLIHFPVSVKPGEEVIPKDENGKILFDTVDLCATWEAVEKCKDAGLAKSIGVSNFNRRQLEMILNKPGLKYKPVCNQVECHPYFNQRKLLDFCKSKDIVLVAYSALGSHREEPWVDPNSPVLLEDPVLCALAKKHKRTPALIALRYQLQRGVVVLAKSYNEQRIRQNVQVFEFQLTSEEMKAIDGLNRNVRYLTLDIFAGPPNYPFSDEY
Assay: Enzyme activity (NADPH) assay with s-tetralol, recombinant GST-AKR1C1;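 further: GST-fused AKR1C1 expressed in E. coli and purified by glutathione affinity, control wells received DMSO instead of compound, duplicate samples from a single experiment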
Format: biochemical
Design: made in house; host or cells: Escherichia coli JM109
Details: 2 μM compound; Supplementary Table 1; CON = 1; read-out: ratio (activity relative to CON)
Recorded remaining activity at 2 µM by entry
Just the number please, in %, no unit attached.

// returns reported remaining activity at 2 µM for input CC(C)=CCOc1c2ccoc2cc2oc(=O)ccc12 [Isoimperatorin]
88.5

Which value of remaining activity at 2 µM has been reported for CC1(C)C=Cc2c(ccc3c2OC[C@@H](c2ccc(O)cc2O)C3)O1 [Glabridin] in the records?
112

Which remaining activity at 2 µM is listed for CC(C)=CC[C@@H](O)C1=CC(=O)c2c(O)ccc(O)c2C1=O [Shikonin] ?
109

Consider the compound shown here: C[C@H]1O[C@@H](O[C@H]2CC[C@@]3(C)[C@@H](CC[C@]4(C)[C@@H]3C=C[C@]35OC[C@@]6(CCC(C)(C)C[C@H]63)[C@@H](O)C[C@]54C)[C@]2(C)CO)[C@H](O)[C@@H](O[C@@H]2O[C@H](CO)[C@@H](O)[C@H](O)[C@H]2O)[C@H]1O [Saikosaponin A] What is its recorded remaining activity at 2 µM?
94.5

Can you share its remaining activity at 2 µM? I mean this compound: O=C(/C=C/c1ccc(O)cc1)CC(=O)/C=C/c1ccc(O)cc1 [Bisdemethoxycurcumin]
93.8

What does the record list as remaining activity at 2 µM for CC1(C)O[C@H]1COc1c2ccoc2cc2oc(=O)ccc12 [Oxypeucedanin] ?
100

Would you kindly share the measured remaining activity at 2 µM for C[C@@H]1CC[C@@]2(OC1)O[C@H]1C[C@H]3[C@@H]4CC=C5C[C@@H](O[C@@H]6O[C@H](CO)[C@@H](O[C@@H]7O[C@@H](C)[C@H](O)[C@@H](O)[C@H]7O)[C@H](O)[C@H]6O[C@@H]6O[C@@H](C)[C@H](O)[C@@H](O)[C@H]6O)CC[C@]5(C)[C@H]4CC[C@]3(C)[C@H]1[C@@H]2C [Dioscin] ?
110

Given the entry COc1cc2c(c(OC)c1OC)-c1c(cc(OC)c(OC)c1OC)C[C@H](C)[C@H](C)C2 [Schisandrin A] , report its measured remaining activity at 2 µM.
109

Endpoint output: remaining activity at 2 µM of COc1cc(C[C@H]2C(=O)OC[C@@H]2Cc2ccc(OC)c(OC)c2)ccc1O [Arctigenin] . Value?
106

remaining activity at 2 µM for O=c1c(-c2ccc(O)cc2)coc2cc(O)ccc12 [Daidzein] ?
65.2

Entry COc1ccc(-c2coc3cc(O)ccc3c2=O)cc1O [Calycosin] has what remaining activity at 2 µM?
95.2

Which remaining activity at 2 µM is reported for this compound? COc1cc(C(=O)O[C@H]2[C@@H]3C=CO[C@@H](O[C@@H]4O[C@H](CO)[C@@H](O)[C@H](O)[C@H]4O)[C@@H]3[C@@]3(CO)O[C@@H]23)ccc1O [Picroside Ⅱ]
57

What does the data say about its remaining activity at 2 µM? Entry: COc1c(O)cc(O)c2c(=O)cc(-c3ccccc3)oc12 [Wogonin]
22.3

Which remaining activity at 2 µM is reported for this compound? O=c1c(O[C@@H]2O[C@H](CO)[C@@H](O)[C@H](O)[C@H]2O)c(-c2ccc(O)cc2)oc2cc(O)cc(O)c12 [Astragalin]
62.4
